System tested: Neuropeptides B/W receptor type 1 (Homo sapiens)
Test method notes: GPR7 receptor antagonists, primary screen, cell-based, fluorescence, single concentration (AID 1861);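 further: cells stimulated with the agonist NPW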
Reported conditions: GPR7-expressing cells, fluorescence antagonist assay; at 4.4 µM
Out of some 290,000 compounds screened, about 3,100 (1.1%) were called active. No stated cut-off is given here; in the data, active means inhibition above about 16% (passing the limit was not always enough); inactive means the rest. For the sample, actives were picked, then their nearest neighbours and some compounds at random.
Labels: active, inactive

# Compound, System tested, Answer label
data = [
    ("COC(=O)c1ccc(N2CCOCC2)c(NC(=O)c2ccc3c(c2)OCCO3)c1", "Neuropeptides B/W receptor type 1 (Homo sapiens)", "inactive"),
    ("CCOC(=O)N1CCN(C(=O)C(C)NC(=O)c2ccco2)CC1 (stereo not drawn)", "Neuropeptides B/W receptor type 1 (Homo sapiens)", "inactive"),
    ("Cn1nccc1C(=O)N1CCCC(C(=O)c2ccc(Oc3ccccc3)cc2)C1 (stereo not drawn)", "Neuropeptides B/W receptor type 1 (Homo sapiens)", "inactive"),
    ("CCC1C(=O)NCCN1C(=O)c1ccc2nc(Cc3ccc(OC)cc3)oc2c1 (stereo not drawn)", "Neuropeptides B/W receptor type 1 (Homo sapiens)", "inactive"),
    ("COc1ccc2cc(C(=O)NCC3CCCO3)[nH]c2c1 (stereo not drawn)", "Neuropeptides B/W receptor type 1 (Homo sapiens)", "inactive"),
    ("Cc1ccc(C(=O)NCC(=O)OCC(=O)NC2CCCCCCC2)cc1", "Neuropeptides B/W receptor type 1 (Homo sapiens)", "inactive"),
    ("O=C(Nc1cccc(Cl)c1Cl)c1ccccc1NC(=O)C1CC=CCC1C(=O)O (stereo not drawn)", "Neuropeptides B/W receptor type 1 (Homo sapiens)", "inactive"),
    ("Cc1cccc(C2C3=C(CCCC3=O)N=C3c4ccccc4C(=O)C32)c1 (stereo not drawn)", "Neuropeptides B/W receptor type 1 (Homo sapiens)", "inactive"),
    ("Cc1nn(C)c(Oc2ccccc2)c1[N+](=O)[O-]", "Neuropeptides B/W receptor type 1 (Homo sapiens)", "inactive"),
    ("CCc1ccc(S(=O)(=O)Nc2cc3c(cc2N2CCCCC2)n(C)c(=O)c(=O)n3C)cc1", "Neuropeptides B/W receptor type 1 (Homo sapiens)", "inactive"),
    ("Clc1ccc(-c2cc(-c3ccccn3)on2)c(Cl)c1", "Neuropeptides B/W receptor type 1 (Homo sapiens)", "inactive"),
    ("COc1cc(C(C(=O)NC2CCCC2)N(Cc2ccccc2)C(=O)c2snc(C(N)=O)c2N)ccc1O (stereo not drawn)", "Neuropeptides B/W receptor type 1 (Homo sapiens)", "inactive"),
    ("O=C(Cn1cnc2ccccc21)Nc1ccccc1-c1ccccc1", "Neuropeptides B/W receptor type 1 (Homo sapiens)", "inactive"),
    ("CCN(CC)CCCNC(=O)c1c(O)c2cc(F)cc3c2n(c1=O)C(C)CC3 (stereo not drawn)", "Neuropeptides B/W receptor type 1 (Homo sapiens)", "inactive"),
    ("O=C(NCc1ccc2c(c1)OCO2)c1cc(F)c(F)cc1Cl", "Neuropeptides B/W receptor type 1 (Homo sapiens)", "inactive"),
    ("COc1cccc2[nH]c(C(=O)NCCc3ccccc3)cc12", "Neuropeptides B/W receptor type 1 (Homo sapiens)", "inactive"),
    ("COC(=O)CN1C(=O)[C@H]2[C@@H](/C=C/c3ccccc3)N3C(=O)CN(CC4CC4)C(=O)[C@@]3(Cc3ccccc3)[C@H]2C1=O", "Neuropeptides B/W receptor type 1 (Homo sapiens)", "inactive"),
    ("CC1CC(=O)N(CC(=O)Nc2cccc(Cl)c2)c2ccccc2S1(=O)=O (stereo not drawn)", "Neuropeptides B/W receptor type 1 (Homo sapiens)", "inactive"),
    ("Nc1ccn(C2CC(O)C(CO)O2)c(=O)n1 (stereo not drawn)", "Neuropeptides B/W receptor type 1 (Homo sapiens)", "inactive"),
    ("CC(Cc1cccs1)N(Cc1ccc(Cl)cc1)C(=O)c1ccncc1 (stereo not drawn)", "Neuropeptides B/W receptor type 1 (Homo sapiens)", "inactive"),
    ("Clc1ccc(-c2cc(C3CCNCC3)[nH]n2)c(Cl)c1", "Neuropeptides B/W receptor type 1 (Homo sapiens)", "active"),
    ("COc1ccc2oc(=N)c(C(=O)Nc3ccc(Br)cc3)cc2c1", "Neuropeptides B/W receptor type 1 (Homo sapiens)", "inactive"),
    ("O=c1cc(CSc2ccccn2)nc(N2CCN(c3ccccc3)CC2)[nH]1", "Neuropeptides B/W receptor type 1 (Homo sapiens)", "inactive"),
    ("Cc1cccc(Oc2c([N+](=O)[O-])c(=O)n(C)c3ccccc23)c1", "Neuropeptides B/W receptor type 1 (Homo sapiens)", "inactive"),
    ("CCN1CCN(c2ccc(S(=O)(=O)N3CCCCC3)cc2NC(=O)Cc2c(Cl)cccc2Cl)CC1", "Neuropeptides B/W receptor type 1 (Homo sapiens)", "inactive"),
    ("CCc1nc(Nc2ccc(NC(C)=O)cc2)c2oc3ccccc3c2n1", "Neuropeptides B/W receptor type 1 (Homo sapiens)", "inactive"),
    ("COc1ccccc1C(=O)COC(=O)CNS(=O)(=O)c1ccc(NC(C)=O)cc1", "Neuropeptides B/W receptor type 1 (Homo sapiens)", "inactive"),
    ("CN1CCN(c2ccc(S(=O)(=O)N3CCCCC3)cc2NC(=O)Cc2ccccc2F)CC1", "Neuropeptides B/W receptor type 1 (Homo sapiens)", "inactive"),
    ("O=C(NC(=S)NC1CCCCC1)c1ccc(Cl)cc1", "Neuropeptides B/W receptor type 1 (Homo sapiens)", "inactive"),
    ("CCn1cc(C(=O)NCCC(=O)NCCO)c(=O)c2cc3c(cc21)OCO3", "Neuropeptides B/W receptor type 1 (Homo sapiens)", "inactive"),
    ("O=[N+]([O-])c1ccccc1S(=O)(=O)Nc1cccc2cccnc12", "Neuropeptides B/W receptor type 1 (Homo sapiens)", "inactive"),
    ("O=C(CN1C(=O)S/C(=C\\c2ccccc2F)C1=O)NCCCn1ccnc1", "Neuropeptides B/W receptor type 1 (Homo sapiens)", "inactive"),
    ("COc1ccccc1-n1c(SCC(=O)Nc2cccc(C(=O)O)c2)nnc1-c1ccccc1O", "Neuropeptides B/W receptor type 1 (Homo sapiens)", "inactive"),
    ("CCCCCc1ccc(-c2cn(Cc3ccc4ccccc4c3)nn2)cc1", "Neuropeptides B/W receptor type 1 (Homo sapiens)", "inactive"),
    ("COc1cccc(N2CCN(c3ccc4nnc(CCC(=O)N5CCN(C)CC5)n4n3)CC2)c1", "Neuropeptides B/W receptor type 1 (Homo sapiens)", "inactive"),
    ("O=C(O)c1ccc(OCC2CCCO2)cc1 (stereo not drawn)", "Neuropeptides B/W receptor type 1 (Homo sapiens)", "inactive"),
    ("O=C(CN1C(=O)/C(=C/c2ccccc2F)Sc2ccccc21)NCc1cccnc1", "Neuropeptides B/W receptor type 1 (Homo sapiens)", "active"),
    ("Cc1ccc(Cl)c(NC(=O)CN2CCN(C=O)CC2)c1", "Neuropeptides B/W receptor type 1 (Homo sapiens)", "inactive"),
    ("Cn1c(=O)c([N+](=O)[O-])c(Oc2ccccc2)c2ccccc21", "Neuropeptides B/W receptor type 1 (Homo sapiens)", "active"),
    ("CSCc1ccc(C(=O)Nc2cc(C)cc(C)c2)cc1", "Neuropeptides B/W receptor type 1 (Homo sapiens)", "inactive"),
    ("CCN(CC)S(=O)(=O)c1ccc(N2CCN(C)CC2)c(NC(=O)Nc2ccccc2F)c1", "Neuropeptides B/W receptor type 1 (Homo sapiens)", "inactive"),
    ("COc1ccc(NC(=O)CSCc2ccc([N+](=O)[O-])cc2)cc1OC", "Neuropeptides B/W receptor type 1 (Homo sapiens)", "inactive"),
    ("CCCOc1cccc(C(=O)Nc2ccccc2C(=O)N2CCN(C)CC2)c1", "Neuropeptides B/W receptor type 1 (Homo sapiens)", "inactive"),
]
